Entries and their measured inhibition follow.
Test: inhibitors of PGC1a acetylation signal, primary screen, cell-based, U2OS, AlphaScreen, inhibitor mode (AID 651687);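 also: 0% = neutral control wells and 100% = positive control wells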
Settings: AlphaScreen anti-acetyl-lysine, at 15.6 µM, stronger effect = higher value, with virally co-expressed GCN5 acetyltransferase
Screen size: about 350,000 compounds; about 600 (0.17%) were called active. For the sample, actives were picked, then their nearest neighbours and some compounds at random.
endpointLabel: inhibition (%)

| molecule | endpointLabel | valueReported |
| --- | --- | --- |
| COc1ccc(N2CCC(N3CCN(C)C(CCO)C3)CC2)cc1 (centres undefined) | inhibition | 0.824 |
| C[C@@H]1CCCCO[C@@H](CN(C)C(=O)Cc2ccccc2)[C@H](C)CN([C@@H](C)CO)C(=O)c2cc(NC(=O)Nc3ccc4c(c3)OCO4)ccc2O1 | inhibition | -5.63 |
| CN(C)CC(=O)Nc1ccc2c(c1)[C@H]1C[C@H](CC(=O)NCc3ccc4c(c3)OCO4)O[C@@H](CO)[C@H]1O2 | inhibition | -4.35 |
| Cc1ccc(S(=O)(=O)NC[C@H]2CC[C@@H]3[C@@H](CN3Cc3ccccc3C(=O)O)O2)cc1 | inhibition | -6.11 |
